- Organism: Rattus norvegicus
- testMethodNotes: DrugMatrix - Regimen: Daily Repeat
- Format: toxicity, organism-based, Sprague-Dawley
- Design: regimen Daily Repeat, gender Male, age 6-8 weeks
- conditionContext: in vivo, po, 0 mg/kg, 72 h, tissue Plasma, route oral GAVAGE, dose level Control, time 3 day, vehicle 100 % WATER
readoutLabel: CREATININE (mg/dL)

compound | readoutLabel | recordedResult
CCCC(C)C1(CC)C(=O)NC(=O)NC1=O (stereo not given) | CREATININE | 0.17
NC12CC3CC(CC(C3)C1)C2 | CREATININE | 0.18
NC(=O)c1cccnc1 [NIACINAMIDE] | CREATININE | 0.29
CNC1=Nc2ccc(Cl)cc2C(c2ccccc2)=[N+]([O-])C1 [CHLORDIAZEPOXIDE] | CREATININE | 0.2
CN(C)C(=O)Oc1cccc([N+](C)(C)C)c1.[Br-] [NEOSTIGMINE BROMIDE] | CREATININE | 0.17
